Target: GST-tagged recombinant full-length human Pim-2 (Homo sapiens, UniProt Q9P1W9)
Construct: GST-tagged recombinant full-length human Pim-2; GST
Sequence (Q9P1W9 whole entry): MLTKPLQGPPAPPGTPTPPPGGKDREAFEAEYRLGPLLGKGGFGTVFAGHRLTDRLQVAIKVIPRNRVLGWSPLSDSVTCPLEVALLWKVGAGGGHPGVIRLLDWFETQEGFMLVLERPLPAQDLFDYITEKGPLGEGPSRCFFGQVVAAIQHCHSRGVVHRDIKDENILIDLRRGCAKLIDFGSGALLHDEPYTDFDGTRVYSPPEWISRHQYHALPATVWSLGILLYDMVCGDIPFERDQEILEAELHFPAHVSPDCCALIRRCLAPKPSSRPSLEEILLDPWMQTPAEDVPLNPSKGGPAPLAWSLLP
Assay: PIM-2 Assay (as Example A)
Type: biochemical
Conditions: averaged IC50; 4 μM ATP, 1.0 μM PIM2tide, 1.5 nM Pim-2
Structures can show the parent of a compound that is named as a salt.
Endpoint: IC50 (nM)

Use the examples below as a reference point.
Compound	Reading unit	IC50
COC[C@@H](C)Oc1cc(F)cc2ccc(-c3nnc4ccc([C@H](N5CC[C@](C)(N)C5)C(F)(F)F)cn34)nc12 [Example 221, dihydrochloride]	nM	128
CC(C)Oc1cc(F)cc2ccc(-c3nnc4ccc([C@@H](N5CC[C@H](N)C5)C(F)(F)F)cn34)nc12 [Example 86, hydrochloride]	nM	31
FC(F)(F)[C@H](c1ccc2nnc(-c3ccc4ccc(C5CC5)cc4n3)n2c1)N1C[C@@H]2C[C@H]1CN2 [Example 77, dihydrochloride]	nM	10
CC(C)(O)COc1cccc2ccc(-c3nnc4ccc([C@@H](N5CC[C@@](C)(N)C5)C(F)(F)F)cn34)nc12 [Example 272, dihydrochloride]	nM	124
N[C@H]1CCN([C@H](c2ccc3nnc(-c4ccc5cc(F)c(OCC(F)(F)F)cc5n4)n3c2)C(F)(F)F)C1 [Example 226, dihydrochloride]	nM	235
COC[C@@H](C)Oc1cc(F)cc2ccc(-c3nnc4ccc([C@@H](N5CC[C@H](N)C5)C(F)(F)F)cn34)nc12 [Example 159, dihydrochloride]	nM	48

(P) CC(C)Oc1cccc2ccc(-c3nnc4ccc([C@@H](N5C[C@@H](N)[C@@H](O)C5)C(F)(F)F)cn34)nc12 [Example 129, dihydrochloride]
(Q) C[C@H](CO)Oc1cccc2ccc(-c3nnc4ccc([C@@H](N5CC[C@H](N)C5)C(F)(F)F)cn34)nc12 [Example 186, dihydrochloride]
(R) CC(C)Oc1ccc2ccc(-c3nnc4ccc([C@@H](N5CC[C@H](N)C5)C(F)(F)F)cn34)nc2c1 [Example 142, dihydrochloride]
List these items ordered by IC50, big to small. // rank by listing labels in the order requested
P, Q, R
(P: 621 nM, Q: 67 nM, R: 44 nM)

* * *

Target: GST-tagged recombinant full-length human Pim-2 (Homo sapiens, UniProt Q9P1W9)
Construct: GST-tagged recombinant full-length human Pim-2; GST
Test: PIM-2 Assay (as Example A)
Details: averaged IC50; 4 μM ATP, 1.0 μM PIM2tide, 1.5 nM Pim-2
Counter-ions that a name gives are not always drawn.
Endpoint: IC50 (nM)

(A) N[C@H]1CCN(C(c2ccc3nnc(-c4ccc5cc(F)c(OCCOC(=O)c6ccccc6)cc5n4)n3c2)C(F)(F)F)C1 (stereo in doubt) [Example 313]
(B) Cc1c(OC(C)C)ccc2ccc(-c3nnc4ccc([C@@H](N5CC[C@H](N)C5)C(F)(F)F)cn34)nc12 [Example 116, hydrochloride]
For the two items A and B , which reports the higher IC50 value? Indicate which entry you chose by stating its label.
A

* * *

Target: GST-tagged recombinant full-length human Pim-2 (Homo sapiens, UniProt Q9P1W9)
Construct: GST-tagged recombinant full-length human Pim-2; GST
Test: PIM-2 Assay (as Example A)
Conditions: averaged IC50; 4 μM ATP, 1.0 μM PIM2tide, 1.5 nM Pim-2
Counter-ions that a name gives are not always drawn.
Endpoint: IC50 (nM)

Compound	Assayed target	Reading unit	Obs value
N[C@@H]1CCN([C@H](c2ccc3nnc(-c4ccc5cccc(OCC6CC6)c5n4)n3c2)C(F)(F)F)C1 (single isomer, unassigned)	GST-tagged recombinant full-length human Pim-2 (Homo sapiens, UniProt Q9P1W9)	nM	145
COCCOc1cccc2ccc(-c3nnc4ccc([C@@H](N5CC[C@H](N)C5)C(F)(F)F)cn34)nc12 [Example 227, dihydrochloride]	GST-tagged recombinant full-length human Pim-2 (Homo sapiens, UniProt Q9P1W9)	nM	453
CC(C)(C#N)c1cccc2ccc(-c3nnc4ccc([C@@H](N5CC[C@H](N)C5)C(F)(F)F)cn34)nc12 [Example 99, dihydrochloride]	GST-tagged recombinant full-length human Pim-2 (Homo sapiens, UniProt Q9P1W9)	nM	55
CC(C)(C)NC(=O)c1ccc2ccc(-c3nnc4ccc([C@@H](N5CC[C@H](N)C5)C(F)(F)F)cn34)nc2c1C1CC1 [Example 83, dihydrochloride]	GST-tagged recombinant full-length human Pim-2 (Homo sapiens, UniProt Q9P1W9)	nM	28

(a) N[C@H]1CCN([C@H](c2ccc3nnc(-c4ccc5cc(F)cc(OCC6CC6)c5n4)n3c2)C(F)(F)F)C1 [Example 158, hydrochloride]
(b) COCCOc1ccc2ccc(-c3nnc4ccc([C@H](N5CC[C@](C)(N)C5)C(F)(F)F)cn34)nc2c1 [Example 260, dihydrochloride]
Kindly identify the item with the lower IC50 figure among these two: a and b Indicate which entry you chose by stating its label.
a
